Target: T1, biotinylated human DLL3 protein expressed as a human IgG1 fusion protein (human, UniProt Q9NYJ7 27-492, limits assumed, biotinylated)
T1 sequence: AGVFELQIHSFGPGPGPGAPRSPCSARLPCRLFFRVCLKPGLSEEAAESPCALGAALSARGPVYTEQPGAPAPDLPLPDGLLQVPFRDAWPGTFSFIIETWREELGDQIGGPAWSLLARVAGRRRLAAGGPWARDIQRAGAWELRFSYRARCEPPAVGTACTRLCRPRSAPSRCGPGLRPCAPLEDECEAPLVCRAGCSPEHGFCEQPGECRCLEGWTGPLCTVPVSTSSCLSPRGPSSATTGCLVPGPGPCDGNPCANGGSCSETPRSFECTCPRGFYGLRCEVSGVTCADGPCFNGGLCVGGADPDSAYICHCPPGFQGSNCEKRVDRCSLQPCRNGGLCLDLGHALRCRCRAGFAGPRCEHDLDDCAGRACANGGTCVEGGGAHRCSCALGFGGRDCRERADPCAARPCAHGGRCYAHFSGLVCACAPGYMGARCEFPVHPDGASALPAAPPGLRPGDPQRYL
Experiment: Octet BLI, single 50 nM
Parameter Kd: see the listing below.
Record the value in nM, omitting the unit from your answer.

Below are worked cases with known answers.
1G06 anti-DLL3 trispecific protein (other, not shown: linker 1808, anti-albumin sdAb, linker 1808, anti-CD3 fragment, His6 1819) EVQLVESGGGLVQPGGSLTLSCVASGSTSSINAIGWYRRAPGKQRELVAGISSDGSKVYAVSVKGRFTISRDNAKNSVYLQMNSLRAEDTAVYYCYYFRKVSGSSARYWGQGTLVTVSS: 26
3D07 anti-DLL3 trispecific protein (other, not shown: linker 1808, anti-albumin sdAb, linker 1808, anti-CD3 fragment, His6 1819) EVQLVESGGGLVQPGGSLTLSCAASGSSVRFLSMAWYRQAPGKKRELVAGISADGSTDYIDSVKGRFTISRDNAKNSVYLQMNSLRAEDTAVYYCYAYSWTTRYTYWGQGTLVTVSS: 5.9
1A03 anti-DLL3 trispecific protein (other, not shown: linker 1808, anti-albumin sdAb, linker 1808, anti-CD3 fragment, His6 1819) EVQLVESGGGLVQPGGSLTLSCVASGSTSSINAMAWYRRAPGKQRELVAGISSDGSKVYADSVKGRFTISRDNAKNSVYLQMNSLRAEDTAVYYCYYFRTVSGSSSRYWGQGTLVTVSS: 6.3
4E08 anti-DLL3 trispecific protein (other, not shown: linker 1808, anti-albumin sdAb, linker 1808, anti-CD3 fragment, His6 1819) EVQLVESGGGLVQPGGSLTLSCAASGSSVKFLSMAWYRQAPGKKRELVAGISTDGSTDYIDSVKGRFTISRDNAKNSVYLQMNSLRAEDTAVYYCYAYKWTTRYTYWGQGTLVTVSS: 7.2

Query: Assign Kd to the following record: 3G04 anti-DLL3 trispecific protein (other, not shown: linker 1808, anti-albumin sdAb, linker 1808, anti-CD3 fragment, His6 1819) EVQLVESGGGLVQPGGSLTLSCVASGTSVSFLSMAWYRQAPGKKRELVAGISADGSTIYIDSVKGRFTISRDNAKNSVYLQMNSLRAEDTAVYYCYAYRWTTRRTYWGQGTLVTVSS
Result: 8.8

Query: Assign Kd to the following record: 4H07 anti-DLL3 trispecific protein (other, not shown: linker 1808, anti-albumin sdAb, linker 1808, anti-CD3 fragment, His6 1819) EVQLVESGGGLVQPGGSLTLSCAASGRSVSFLSMAWYRQAPGKKRELVAGISANGSTDYIDSVKGRFTISRDNAKNSVYLQMNSLRAEDTAVYYCYAYRWSTRYTYWGQGTLVTVSS
Result: 16

Query: Assign Kd to the following record: 2A06 anti-DLL3 trispecific protein (other, not shown: linker 1808, anti-albumin sdAb, linker 1808, anti-CD3 fragment, His6 1819) EVQLVESGGGLVQPGGSLTLSCVASGSTSSRNAMGWYRRAPGKQRELVAGISSDGSKVTADSVKGRFTISRDNAKNSVYLQMNSLRAEDTAVYYCYYFRTRSGSSMRYWGQGTLVTVSS
Result: 8.9

Query: Assign Kd to the following record: 4F03 anti-DLL3 trispecific protein (other, not shown: linker 1808, anti-albumin sdAb, linker 1808, anti-CD3 fragment, His6 1819) EVQLVESGGGLVQPGGSLTLSCAASGSSVQFLSMAWYRQAPGKKRELVAGISYDGSTDYIDSVKGRFTISRDNAKNSVYLQMNSLRAEDTAVYYCYAYRWRTRYTYWGQGTLVTVSS
Result: 12

Query: Assign Kd to the following record: 3A010 anti-DLL3 trispecific protein (other, not shown: linker 1808, anti-albumin sdAb, linker 1808, anti-CD3 fragment, His6 1819) EVQLVESGGGLVQPGGSLTLSCAASGSRVSFLSMAWYRQAPGKKRELVAGISADGSTLYIDSVKGRFTISRDNAKNSVYLQMNSLRAEDTAVYYCYAYRWTTRRTYWGQGTLVTVSS
Result: 12

Query: Assign Kd to the following record: 2B012 anti-DLL3 trispecific protein (other, not shown: linker 1808, anti-albumin sdAb, linker 1808, anti-CD3 fragment, His6 1819) EVQLVESGGGLVQPGGSLTLSCVASGTTSSINAMGWYRRAPGKQRELVAGISSDGSKVYNDSVKGRFTISRDNAKNSVYLQMNSLRAEDTAVYYCYYFRTVRGSSMRYWGQGTLVTVSS
Result: 7.3
